All figures here come from ChEMBL document CHEMBL5608178.

inhibition reference
Molecular target: Polymerase acidic protein (Influenza A virus (A/Puerto Rico/8/1934(H1N1)))
Test: Inhibition of Influenza A virus N-terminal Polymerase acidic protein endonuclease activity in HEK293T cells transfected with IAV RNA polymerase complex and firefly/renilla luciferase reporter at 10 uM by […] Dual-Glo luciferase assay relative to control
Format: cell-based
recorded.endpoint: inhibition (%)

structure.notation	recorded.endpoint	observed.value
O=C1c2c(O)c(=O)ccn2N(C(c2ccc(F)cc2)c2ccc(F)cc2)C[C@H]2CCCN12	inhibition	50.1
O=C1N[C@H](Cc2ccccc2)CN(C2c3ccccc3CCc3ccccc32)n2ccc(=O)c(O)c21	inhibition	49.5
O=C1c2c(O)c(=O)ccn2N(C2c3ccccc3CCc3ccccc32)C[C@@H]2CCCN12	inhibition	68.2
